Test system: Sam68 (KHDRBS1)
Experiment: Sam68 small-molecule binders, primary screen, biochemical, small-molecule microarray, 635 nm fluorescence (AID 1125);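 further: score merges 667 nm channel intensity with signal to noise over triplicate slides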
Conditions: small-molecule microarray binding, higher = more signal
Kind request: treat 0.3 as inclusive, so composite z-score at 0.3 or higher is Condition met, anything lower is Condition not met.

* CN(C)C(=O)[C@@]1(Cc2ccccc2CN=[N+]=[N-])N=C(c2ccc(OCCCO)cc2)O[C@H]1c1ccccc1CN=[N+]=[N-] | Condition met
* CCOC(=O)C1=CC[C@@H](c2ccc(OCc3ccccc3)c(OC)c2)N(S(=O)(=O)c2ccc(C)cc2)[C@H]1c1ccc(SC)cc1 | Condition met
* Cc1ccc(S[C@]2(C(=O)O)CC(=O)N(Cc3cc(C(F)(F)F)cc(C(F)(F)F)c3)[C@@H]2c2ccc(CO)cc2)cc1 | Condition not met
* O=C1NC(=O)C2C1C=CC(C(O)c1c(F)cccc1Cl)N2Nc1ccc(Cl)cc1Cl (stereo not drawn) | Condition met
* COC(=O)[C@@]1(Cc2ccccc2)[C@H]2c3cc(C(=O)N(C)C)n(CCN4CNCC4=O)c3C[C@H]2CN1C(=O)c1ccccc1 | Condition not met
* O=C1O[C@H](c2ccccc2)[C@H](c2ccccc2)N2[C@H]1[C@@H](C(=O)Nc1nc3ccccc3s1)[C@]1(C(=O)Nc3ccccc31)[C@H]2c1ccc(OCCO)cc1 | Condition met
* O=C1O[C@H](c2ccccc2)[C@H](c2ccccc2)N2[C@H]1[C@@H](C(=O)NC[C@H](O)c1ccccc1)[C@]1(C(=O)Nc3ccc(C#CCCO)cc31)[C@H]2c1ccc(OCCO)cc1 | Condition met
* C=CCC(OC(C)=O)[C@@H]1[C@@H](N(Cc2ccc(-c3cccc(C(F)(F)F)c3)o2)C(=O)c2ccc(-c3ccccc3)cc2)c2cc(OCCCO)ccc2N1C(=O)c1ccc2ccccc2n1 (stereo partly drawn) | Condition not met
* COCCOC(=O)N1C(=O)[C@@]2(c3cc(C#CCNC(N)=O)ccc31)[C@H](C(=O)N1CCc3cc(OC)c(OC)cc3C1)[C@H]1C(=O)O[C@H](c3ccccc3)[C@H](c3ccccc3)N1[C@@H]2c1ccccc1OCCO | Condition met
* COc1ccc([Si](C)(C)[C@@H]2[C@@H](CC(=O)N3Cc4ccccc4C[C@H]3CO)O[C@]3(C(=O)N(C)c4ccccc43)[C@H]2C)cc1 | Condition met
* C=CCC(OC(C)=O)[C@@H]1[C@@H](N(Cc2cccc3ccccc23)C(=O)c2cccc3ccccc23)c2cc(OCCCO)ccc2N1C(=O)c1ccc(-c2ccccc2)cc1 (stereo partly drawn) | Condition not met
* Cc1cc(C)c(C(O)C2C=CC3C(=O)N(c4ccccc4)C(=O)C3N2Nc2ccc(C(C)C)cc2)c(C)c1 (stereo not drawn) | Condition met
* CC=CC(O)C1C=CC2C(=O)N(c3ccccc3)C(=O)C2N1Nc1ccccc1F (stereo not drawn) | Condition met
